# assayed.system: Neurogenic locus notch homolog protein 3 (Homo sapiens) (UniProt Q9UM47)
# Sequence (Q9UM47 whole entry, looked up): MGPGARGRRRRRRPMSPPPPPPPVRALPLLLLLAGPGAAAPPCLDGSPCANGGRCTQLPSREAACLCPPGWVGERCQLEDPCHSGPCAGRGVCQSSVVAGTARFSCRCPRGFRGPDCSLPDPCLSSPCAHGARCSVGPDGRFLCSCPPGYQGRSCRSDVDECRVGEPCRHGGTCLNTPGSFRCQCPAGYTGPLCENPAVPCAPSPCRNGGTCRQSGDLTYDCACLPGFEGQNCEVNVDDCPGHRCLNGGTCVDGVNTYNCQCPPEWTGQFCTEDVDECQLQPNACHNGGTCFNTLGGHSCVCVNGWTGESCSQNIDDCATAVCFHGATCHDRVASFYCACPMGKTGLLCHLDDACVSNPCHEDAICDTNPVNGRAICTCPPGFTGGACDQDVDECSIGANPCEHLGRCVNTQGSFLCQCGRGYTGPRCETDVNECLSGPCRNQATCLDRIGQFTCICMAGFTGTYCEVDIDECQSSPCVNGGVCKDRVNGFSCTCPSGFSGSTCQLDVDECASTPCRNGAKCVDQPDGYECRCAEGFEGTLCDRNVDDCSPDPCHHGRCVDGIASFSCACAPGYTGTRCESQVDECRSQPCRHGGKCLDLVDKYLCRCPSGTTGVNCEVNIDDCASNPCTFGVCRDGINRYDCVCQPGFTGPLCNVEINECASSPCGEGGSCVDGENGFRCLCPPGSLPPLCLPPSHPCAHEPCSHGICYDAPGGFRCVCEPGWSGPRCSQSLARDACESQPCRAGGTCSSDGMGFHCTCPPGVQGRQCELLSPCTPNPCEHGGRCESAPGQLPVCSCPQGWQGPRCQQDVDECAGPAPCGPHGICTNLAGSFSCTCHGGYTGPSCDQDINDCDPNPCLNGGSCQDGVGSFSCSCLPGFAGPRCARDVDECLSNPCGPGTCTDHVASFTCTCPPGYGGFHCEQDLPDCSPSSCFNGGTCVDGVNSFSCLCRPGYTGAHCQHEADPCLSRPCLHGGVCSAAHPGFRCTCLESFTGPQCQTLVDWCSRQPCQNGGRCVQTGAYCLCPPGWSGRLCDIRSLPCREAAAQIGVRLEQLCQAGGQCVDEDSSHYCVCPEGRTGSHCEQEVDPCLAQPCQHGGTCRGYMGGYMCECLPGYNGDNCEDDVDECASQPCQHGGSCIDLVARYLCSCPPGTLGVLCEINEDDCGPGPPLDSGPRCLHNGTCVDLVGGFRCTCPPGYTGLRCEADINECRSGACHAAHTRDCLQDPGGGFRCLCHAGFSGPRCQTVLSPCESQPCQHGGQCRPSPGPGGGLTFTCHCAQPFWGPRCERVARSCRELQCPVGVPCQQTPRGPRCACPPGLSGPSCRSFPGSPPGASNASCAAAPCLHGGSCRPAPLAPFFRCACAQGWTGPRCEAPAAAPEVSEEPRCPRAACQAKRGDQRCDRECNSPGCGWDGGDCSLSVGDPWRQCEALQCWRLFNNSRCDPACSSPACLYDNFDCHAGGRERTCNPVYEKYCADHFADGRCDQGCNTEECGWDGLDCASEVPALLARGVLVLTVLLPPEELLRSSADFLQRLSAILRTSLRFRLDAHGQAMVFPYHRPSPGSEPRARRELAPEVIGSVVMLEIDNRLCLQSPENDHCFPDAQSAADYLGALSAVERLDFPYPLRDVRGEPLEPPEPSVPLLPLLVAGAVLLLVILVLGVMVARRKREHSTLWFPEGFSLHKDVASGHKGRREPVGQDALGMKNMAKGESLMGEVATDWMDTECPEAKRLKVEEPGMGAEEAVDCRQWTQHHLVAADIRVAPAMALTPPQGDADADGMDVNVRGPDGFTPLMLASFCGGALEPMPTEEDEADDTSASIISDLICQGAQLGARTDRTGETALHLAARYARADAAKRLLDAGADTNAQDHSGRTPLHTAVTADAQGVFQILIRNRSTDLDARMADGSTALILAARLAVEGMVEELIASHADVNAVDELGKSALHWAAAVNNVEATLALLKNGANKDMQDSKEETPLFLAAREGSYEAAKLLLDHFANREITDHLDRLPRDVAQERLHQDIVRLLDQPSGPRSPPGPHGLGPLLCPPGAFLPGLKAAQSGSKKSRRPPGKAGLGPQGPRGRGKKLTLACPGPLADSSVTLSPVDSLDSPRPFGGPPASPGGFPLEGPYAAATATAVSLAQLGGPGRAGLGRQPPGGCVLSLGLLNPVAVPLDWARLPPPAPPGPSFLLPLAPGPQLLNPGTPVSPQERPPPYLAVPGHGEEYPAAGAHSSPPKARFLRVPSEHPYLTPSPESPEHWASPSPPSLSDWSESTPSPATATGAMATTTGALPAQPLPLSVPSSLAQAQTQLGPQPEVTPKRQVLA
# protocol.notes: small molecules binding NOTCH3 protein – biochemical, 635/667 nm fluorescence, primary screen (AID 1096)
# test.conditions: small-molecule microarray, 635 nm fluorescence, higher = more signal
This listing pairs compounds with measured composite z-score.

C=C(COC)C(=O)CC[C@H](OC(=O)c1cccnc1)c1ccccc1OCCO :: 1.15
CC(C)NC(=O)[C@@]1(c2ccc([N+](=O)[O-])cc2)CC(=O)N(C(C)C)[C@@H]1c1ccc(CO)cc1 :: -0.323
CC(C)(C)OC(=O)CC[C@@]1(C(=O)N2CCOCC2)N=C(c2ccc(OCCCO)cc2)O[C@@H]1c1ccccc1N=[N+]=[N-] :: 1.06

Consider now this further compound.
**Query** Give its composite z-score value. Item: COCCOC(=O)N1C(=O)[C@@]2(c3cc(C#CC4(O)CCCCCC4)ccc31)[C@H](c1ccc(O)cc1)N1[C@H](c3ccccc3)[C@H](c3ccccc3)OC(=O)[C@H]1[C@@H]2C(=O)N1CCc2cc(OC)c(OC)cc2C1
**Result** -0.551
